- assayTarget: T1, cynomolgus ROR1 on CHO-K1-cynoROR1 cells (cynomolgus monkey, UniProt A0A2K5WTX7 30-937)
- T1 construct: whole, on cells
- measurementNotes: flow cytometry, CHO-K1-cynoROR1 cells
I'd appreciate it if you could supply MAX(MFI) values for the items below.
One number for each entry, in MFI.

PR303189 (antibody, human IgG1, V domains shown, HCAb (heavy chain-only, human IgG1 Fc), no light chain) VH: EVQLVESGGGLVKPGGSLRLSCAASGFNLSDSYMSWIRQAPGKGLEWVSCISSSGSTIYYADSVKGRFTVSRDNAKNSLYLQMNHLRAEDTALYYCARDCVIGIRDDSDIWGQGTMVTVSS :: 5.3e+06

Next, consider the following binder.
get_value(item= PR303155 (antibody, human IgG1, V domains shown, HCAb (heavy chain-only, human IgG1 Fc), no light chain) VH: EVQLVESGGGLVKPGGSLRLSCAASGFTLSDYYMSWIRQAPGKGLEWISYISSNGSTIYYADSVKGRFTISRDNARNSLYLQMNSLRAEDTALYYCARDVSSGWYEDFDYWGQGTLVTVSS , readout=MAX(MFI)) returns 1.1e+07
